Biological target: T1, recombinant canine β NGF (canine, UniProt Q29074 110-229 (pig entry))
T1 construct: also called canine NGF
T1 chain: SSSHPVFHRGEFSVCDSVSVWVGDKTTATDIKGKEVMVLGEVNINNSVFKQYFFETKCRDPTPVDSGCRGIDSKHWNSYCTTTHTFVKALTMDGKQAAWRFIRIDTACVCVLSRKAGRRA
Assay: SPR (Biacore T100), antibody captured on goat anti-canine IgG, canine NGF injected
outcome_measure: koff
Answer format: value, then unit.

Please report koff for the following binder: Mu72 Canine IgG1/k Chimera (antibody, V domains shown, also called PR-1290646; lot 1785614) VH: EVHLVESGGGLVKPGGFLILSCAASGFTFSDYYMFWIRQTPGKRLEWVATISDGGSYTYYTDNVKGRFTISRDNVKNNLYLQMSHLKSADTAMYYCARDWSDSEGFAYWGQGTLVTVSA VL: DVLMTQTPLSLPVSLGDQASISCRSSQSIVQSNGNTYLEWYLQKPGQSPKLLIYKVSNRFSGVPDRFSGSGSGTDFTLKISRVEAEDLGVYYCFQGSHVPFTFGSGTKLEIKR
0.0038 s⁻¹

Hey, just so you know, these numbers are from patent US20180362629A1.
